- Test system: MCF-7 cells
- protocol: Cell cycle analysis by flow cytometry
- Format: cell-based, human
- stated conditions: 100 μM, except adenosine (500 μM) and inosine (1 mM), second number in parentheses
# label = Satisfied if Percentage change of S phase population compared to vehicle-treated cells < 10% else Not satisfied

{"molecule": "OC[C@H]1O[C@@H](n2cnc3c(O)ncnc32)[C@H](O)[C@@H]1O [Inosine]", "class": "Not satisfied"}
{"molecule": "CNC(=O)[C@H]1O[C@@H](n2cnc3c(NCc4cccc(I)c4)ncnc32)[C@H](O)[C@@H]1O [IB-MECA]", "class": "Satisfied"}
{"molecule": "CCNC(=O)[C@H]1O[C@@H](n2cnc3c(N)ncnc32)[C@H](O)[C@@H]1O [NECA, 5′-(N-Ethylcarboxamido)adenosine]", "class": "Satisfied"}
{"molecule": "Nc1nc(Cl)nc2c1ncn2[C@@H]1O[C@H](CO)[C@@H](O)[C@H]1O [CADO, 2-chloro-adenosine]", "class": "Not satisfied"}
{"molecule": "Nc1nc(Cl)nc2c1ncn2[C@H]1C[C@H](O)[C@@H](CO)O1 [CdA, 2-chloro-2′-deoxyadenosine]", "class": "Not satisfied"}
{"molecule": "Nc1ncnc2c1ncn2[C@@H]1O[C@H](CO)[C@@H](O)[C@H]1O [Adenosine]", "class": "Satisfied"}
{"molecule": "OC[C@H]1O[C@@H](n2cnc3c(NC4CCCC4)nc(Cl)nc32)[C@H](O)[C@@H]1O [CCPA, 2-Chloro-N^6-cyclopentyladenosine]", "class": "Satisfied"}

* * *

In this section we review reported Percentage change of diploid (G0 or G1 phase) population compared to vehicle-treated cells values for a set of compounds.
- System: MCF-7 cells
- protocol: Cell cycle analysis by flow cytometry
- Format: cell-based, human
- stated conditions: 100 μM, except adenosine (500 μM) and inosine (1 mM), first number in parentheses
assay metric: Percentage change of diploid (G0 or G1 phase) population compared to vehicle-treated cells (%)

{"compound": "Nc1ncnc2c1ncn2[C@@H]1O[C@H](CO)C[C@H]1O [Cordycepin, 3′-deoxyadenosine]", "unit abbreviation": "%", "val": "−26"}
{"compound": "Nc1nc(Cl)nc2c1ncn2[C@H]1C[C@H](O)[C@@H](CO)O1", "unit abbreviation": "%", "val": "−69"}
{"compound": "OC[C@H]1O[C@@H](n2cnc3c(NC4CCCC4)nc(Cl)nc32)[C@H](O)[C@@H]1O", "unit abbreviation": "%", "val": 3}
{"compound": "CCNC(=O)[C@H]1O[C@@H](n2cnc3c(N)ncnc32)[C@H](O)[C@@H]1O", "unit abbreviation": "%", "val": 0}
{"compound": "CNC(=O)[C@H]1O[C@@H](n2cnc3c(NCc4cccc(I)c4)ncnc32)[C@H](O)[C@@H]1O", "unit abbreviation": "%", "val": 28}
{"compound": "OC[C@H]1O[C@@H](n2cnc3c(O)ncnc32)[C@H](O)[C@@H]1O", "unit abbreviation": "%", "val": "−24"}
{"compound": "Nc1ncnc2c1ncn2[C@@H]1O[C@H](CO)[C@@H](O)[C@H]1O", "unit abbreviation": "%", "val": "−25"}
{"compound": "Nc1nc(Cl)nc2c1ncn2[C@@H]1O[C@H](CO)[C@@H](O)[C@H]1O", "unit abbreviation": "%", "val": "−11"}
